Each entry gets label 0 if its melting point stays under 100 °C, and label 1 if its melting point is 100 °C or above.

Below, 10 compounds whose answers are already recorded.
CCCCCC(C)CCC (stereo unspecified)    label 0
C=C(C)[C@@H]1CC[C@@H](C)C[C@@H]1O    label 0
CC(C)C[N+](=O)[O-]    label 0
NC(=S)Nc1ccccc1    label 1
COP(=S)(OC)Oc1c(Cl)cc(C)cc1Cl    label 0
C[C@]12C=CC(=O)C=C1CC[C@@H]1[C@@H]2[C@@H](O)C[C@@]2(C)[C@H]1CC[C@]2(O)C(=O)COC(=O)CCCc1ccc(N(CCCl)CCCl)cc1    label 1
CCCCCCCCCCCCCCCCCCCCCC(=O)OC    label 0
Cc1ccc(C(=O)O)cc1    label 1
Cc1cc(O)c2c(O)c3c(O)cccc3cc2c1    label 1
O=C(O)Cc1c(-c2ccccc2)c(-c2ccccc2)nn1-c1ccccc1    label 1

Now for another entry.
Say whether O=C/C(Cl)=C(/Cl)C(=O)O shows melting point of 100 °C or more.
label 1

====

Kind request: treat 2 as inclusive, so log10 Koc (L/kg) at 2 or higher is True, anything lower is False.

ClC1=C(Cl)C2(Cl)C3C(Cl)C=CC3C1(Cl)C2(Cl)Cl (centres undefined)    True

Please turn your attention to the following entry.
Does the reported log10 Koc (L/kg) for c1cc[n+]2c(c1)-c1cccc[n+]1CC2 fall at or above the 2 mark?
True

====

reported.metric: boiling point (°C)
One number for each entry, in °C.

Known results for molecules:
Cc1ncccn1    138
CCCOC(=O)CC(C)C    156

Please look at the items below and tell me boiling point for each one, in order.
1. CC(=O)c1cccc(C)c1
2. CCCCCCc1ccc2c(c1)CCC2
3. O=Cc1cccc(Cl)c1
4. CCCCC(C=O)CC (stereo not drawn)
5. FC(F)(F)C(F)(F)C(F)(F)C(F)(F)C(F)(F)F
6. FC(F)(F)C(F)(F)C(F)(F)C(F)(F)C(F)(F)C(F)(F)I
7. CC(C)c1ccc(N)cc1
8. O=[N+]([O-])c1c(F)cc(F)cc1F

1. 220
2. 292
3. 214
4. 163
5. 29.2
6. 118
7. 225
8. 184

Batch of 5 molecules: report boiling point for each.
1. CCCCCCCCCCCCCCCCCCCCCCCCCCCCCCCCCC
2. C1CC2CCCC(C1)C2
3. Nc1ccc(O)cc1
4. CCOC(=O)c1ccccc1N
5. C=CC(CC)CCC (stereo not drawn)

1: 483; 2: 170; 3: 284; 4: 268; 5: 110

Hi! Can you tell me boiling point for each of these molecules?
1. C1CCSCC1
2. Nc1ccccn1
3. N#Cc1nc(C#N)nc(C#N)n1
4. CCCCC(C)Cl (stereo not drawn)
5. OC(C(F)(F)F)C(F)(F)F
6. c1ccc(Sc2ccccc2)cc1
7. CCOC(=O)C(C)(C)C(=O)OCC

1. 142
2. 211
3. 262
4. 122
5. 59
6. 296
7. 197

====

Rule: melting point of 90 °C or more gives Criterion met; anything lower gives Criterion not met.

Decide: is the reported value of melting point for Cc1cccc[n+]1[O-] equal to or greater than 90 °C?
Criterion not met
